- subject-of-test: T1, human OX40 (NP_003318) (human, UniProt P43489 29-214, limits assumed)
- T1 construct: also called HuOX40; CD134
- T1 sequence: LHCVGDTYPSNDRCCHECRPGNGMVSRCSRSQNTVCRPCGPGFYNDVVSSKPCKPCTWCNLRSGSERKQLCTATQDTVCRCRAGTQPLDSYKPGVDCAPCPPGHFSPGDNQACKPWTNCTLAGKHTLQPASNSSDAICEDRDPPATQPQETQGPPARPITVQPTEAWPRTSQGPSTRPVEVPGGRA
- assay-info: ELISA, binding to human OX40
assay-endpoint: pEC50
Schema: pEC50 number; meaning minus log10 of the concentration expressed in molar units.

Kindly note the recorded pEC50 for humanized Ab REMD 277.2 (VH2-1/VL5BM) (antibody, human IgG1, kappa, V domains shown) VH: EVQLVQSGAEVKKPGESLKISCKGSGYTFTSYVMHWVRQMPGKGLEWMGYINPYNDGTKYNEKFKGQVTISADKSISTAYLQWSSLKASDTAMYYCARYYGSNYAMDYWGQGTMVTVSS VL: DIQMTQSPSSLSASVGDRVTISCRASQDIRNYLNWYQQKPGKTVKLLIYYTSRLHSGVPSRFSGSGSGTDYTFTISSLQPEDIATYFCQQGNTLPWTFGGGTKLEIKR , which is 8.51

Just for reference, patent US20210024640A1 is where these values come from.
